Origin of values: paper PMC11945486

# TARGET SYSTEM: human TAS1R2-WT/TAS1R3-G832R (Homo sapiens, UniProt Q7RTX0+Q8TE23, G832R)
# Construct: expressed in transfected cells; host or cells: HEK293T stably expressing Gα16gust44
# Sequence (Q8TE23 20-839): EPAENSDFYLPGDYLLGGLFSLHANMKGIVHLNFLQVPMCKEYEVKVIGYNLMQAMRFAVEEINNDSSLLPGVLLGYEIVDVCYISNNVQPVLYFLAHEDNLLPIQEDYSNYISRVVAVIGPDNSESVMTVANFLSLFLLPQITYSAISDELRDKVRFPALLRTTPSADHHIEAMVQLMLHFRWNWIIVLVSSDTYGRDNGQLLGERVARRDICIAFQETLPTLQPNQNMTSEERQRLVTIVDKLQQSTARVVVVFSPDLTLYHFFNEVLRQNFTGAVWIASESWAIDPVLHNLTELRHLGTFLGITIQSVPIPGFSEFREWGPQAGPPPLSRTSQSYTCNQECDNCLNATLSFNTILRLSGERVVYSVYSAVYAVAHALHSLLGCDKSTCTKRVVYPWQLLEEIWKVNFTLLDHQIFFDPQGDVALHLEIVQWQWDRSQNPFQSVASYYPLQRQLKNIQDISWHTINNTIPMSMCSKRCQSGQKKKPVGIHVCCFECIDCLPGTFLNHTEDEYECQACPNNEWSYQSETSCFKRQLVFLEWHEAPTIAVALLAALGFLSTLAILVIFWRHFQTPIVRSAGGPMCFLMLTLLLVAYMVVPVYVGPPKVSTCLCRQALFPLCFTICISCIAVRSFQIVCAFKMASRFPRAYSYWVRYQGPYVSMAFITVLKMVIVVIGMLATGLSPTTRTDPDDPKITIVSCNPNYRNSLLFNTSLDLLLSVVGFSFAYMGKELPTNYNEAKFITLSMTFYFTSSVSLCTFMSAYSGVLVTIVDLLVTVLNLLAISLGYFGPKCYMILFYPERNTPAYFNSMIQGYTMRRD
# Sequence (Q7RTX0 21-852 G832R): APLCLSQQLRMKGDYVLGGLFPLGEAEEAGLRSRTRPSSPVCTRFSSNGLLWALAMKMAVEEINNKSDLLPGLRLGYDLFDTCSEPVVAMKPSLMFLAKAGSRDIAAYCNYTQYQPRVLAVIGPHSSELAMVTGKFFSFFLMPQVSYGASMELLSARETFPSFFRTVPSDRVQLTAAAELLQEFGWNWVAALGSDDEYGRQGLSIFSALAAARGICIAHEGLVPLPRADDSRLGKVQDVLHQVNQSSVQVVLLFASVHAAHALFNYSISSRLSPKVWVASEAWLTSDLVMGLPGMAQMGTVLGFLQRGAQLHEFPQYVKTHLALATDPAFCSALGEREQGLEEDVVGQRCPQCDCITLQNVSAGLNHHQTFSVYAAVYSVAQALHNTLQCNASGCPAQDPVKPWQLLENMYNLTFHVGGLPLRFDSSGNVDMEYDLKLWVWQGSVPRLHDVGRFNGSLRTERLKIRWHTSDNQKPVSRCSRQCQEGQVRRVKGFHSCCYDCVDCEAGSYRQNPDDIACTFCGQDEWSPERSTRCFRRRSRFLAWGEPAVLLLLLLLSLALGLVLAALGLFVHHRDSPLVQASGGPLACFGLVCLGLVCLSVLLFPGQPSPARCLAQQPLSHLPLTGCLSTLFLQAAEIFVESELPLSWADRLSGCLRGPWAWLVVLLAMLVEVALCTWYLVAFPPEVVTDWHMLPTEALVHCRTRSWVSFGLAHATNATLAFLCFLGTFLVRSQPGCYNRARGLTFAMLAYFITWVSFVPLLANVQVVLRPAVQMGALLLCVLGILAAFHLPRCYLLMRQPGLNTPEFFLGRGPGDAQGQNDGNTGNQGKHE
# MEASUREMENT DESCRIPTION: Calcium mobilisation assay, TAS1R2-WT with TAS1R3 variant G832R
# Assay type: cell-based
# COND: read-out: EC50
Property: EC50; scope: individual compounds
Quick reminder: number only, in µM, skip the unit.

// below: answered compounds
| COMPOUND | EC50 / µM |
| --- | --- |
| OC[C@H]1O[C@H](O[C@]2(CCl)O[C@H](CCl)[C@@H](O)[C@@H]2O)[C@H](O)[C@@H](O)[C@H]1Cl | 81 |
| C=C1C[C@@]23CC[C@H]4[C@@](C)(CCC[C@@]4(C)C(=O)O[C@@H]4O[C@H](CO)[C@@H](O)[C@H](O[C@@H]5O[C@H](CO)[C@@H](O)[C@H](O)[C@H]5O)[C@H]4O[C@@H]4O[C@H](CO)[C@@H](O)[C@H](O)[C@H]4O)[C@@H]2CC[C@]1(O[C@@H]1O[C@H](CO)[C@@H](O)[C@H](O[C@@H]2O[C@H](CO)[C@@H](O)[C@H](O)[C@H]2O)[C@H]1O[C@@H]1O[C@H](CO)[C@@H](O)[C@H](O)[C@H]1O)C3 [Rebaudioside M, rebaudioside M] | 22.7 |
| C=C(C)[C@@H]1CC=C(/C=N/O)CC1 | 7.2 |

Now, please, on to the next compound.
Input: Find the measured EC50 of C[C@H](CC[C@@H](O[C@@H]1O[C@H](CO[C@@H]2O[C@H](CO)[C@@H](O)[C@H](O)[C@H]2O)[C@@H](O)[C@H](O)[C@H]1O[C@@H]1O[C@H](CO)[C@@H](O)[C@H](O)[C@H]1O)C(C)(C)O)[C@H]1CC[C@@]2(C)[C@@H]3CC=C4[C@@H](CC[C@H](O[C@@H]5O[C@H](CO[C@@H]6O[C@H](CO)[C@@H](O)[C@H](O)[C@H]6O)[C@@H](O)[C@H](O)[C@H]5O)C4(C)C)[C@]3(C)[C@H](O)C[C@]12C [Mogroside V, mogroside V] and report it.
Output: 19.1
